# PROCEDURE_SUMMARY: qHTS Assay for Lipid Storage Modulators in Drosophila S3 Cells; also: potency is read from the fitted curve at half-maximal effect
# TEST_PARAMETERS: BODIPY lipid droplet fluorescence, 18-24 h, cells fed with added oleic acid; series mostly up to 46.1 µM
About 2,100 (0.66%) of roughly 320,000 compounds were called active. Not shown: some 53% with an inconclusive outcome. Shown is part of a subset that was picked to be rich in actives.
READOUT_KIND: Potency

These recorded examples may help you get a feel for the data.
[[record]]
smiles_representation = "O=C(Nc1ccc(Cl)cc1)C1CCCC1"
readout_kind = "Potency"
result = "inactive"

[[record]]
smiles_representation = "Cn1cnnc1SCCNS(=O)(=O)c1cccc([N+](=O)[O-])c1"
readout_kind = "Potency"
result = "inactive"

[[record]]
smiles_representation = "O=C(CN1CCN(c2ccccc2O)CC1)NC(c1ccccc1)c1ccccc1"
readout_kind = "Potency"
result = "inactive"

[[record]]
smiles_representation = "Cc1cc(-n2c(C)cc(C(=O)COc3ccc4ccc(=O)oc4c3)c2C)no1"
readout_kind = "Potency"
result = "inactive"


Now consider a different compound.
Ask: # lookup: Potency of O=C(NCCN1CCOCC1)c1sc2cc(Cl)ccc2c1Cl
Result: 4.61 µM (active)

* * *

# PROCEDURE_SUMMARY: qHTS Assay for Lipid Storage Modulators in Drosophila S3 Cells;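 as to cell number change: cells counted by Cell Tracker Red CMTPX staining in the red channel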
# TEST_PARAMETERS: BODIPY lipid droplet fluorescence, 18-24 h, cells fed with added oleic acid; measured here: cell count max response
Screen size: about 320,000 compounds; about 2,100 (0.66%) were called active. About 53% were inconclusive and are not listed. The entries come from a sample that favours actives as a whole.
Assign cell number change to each entry below.
I'd appreciate it if you wrote the number followed by its unit.

[[record]]
molecule = "COc1cccc(NC(=O)CN(C)C(=O)c2ccc(S(=O)(=O)Nc3ccccc3C)cc2)c1"
readout_kind = "cell number change"
result = "-4.07%"


// for each molecule in input: emit cell number change
1. CCOC(=O)C1=C(N)OC2=C(C(=O)CC(C)(C)C2)C1c1cccnc1 (configuration not stated)
2. CC(OC(=O)Cc1ccc(Br)cc1)C(=O)NC1CCCCC1C (configuration not stated)
3. O=C(Cc1cccc(NC(=O)C2CCN(C(=O)CCc3ccccc3)CC2)c1)Nc1cccc(C(=O)N2CCCC2)c1
4. COc1ccc(CC(=O)Nc2nc(-c3ccc(OC)c(OC)c3)cs2)cc1OC
5. CC(=O)Nc1ccc(S(=O)(=O)N2CCN=C2SCc2cccnc2)cc1
6. Cc1cccc(C(=O)Nc2ccc(N3CCN(S(C)(=O)=O)CC3)cc2)c1
7. O=[N+]([O-])c1cccc(S(=O)(=O)NCCc2ccccc2)c1

Result:
1: -4.63%; 2: 5.28%; 3: -25.9%; 4: -7.98%; 5: -0.745%; 6: 1.55%; 7: -15.1%

// for each molecule in input: emit cell number change
1. CCOC(=O)NCc1ccc2[nH]c(C)cc2c1
2. Cc1cccc(NC(=O)CCC(=O)N2CCOCC2)n1
3. COc1ccc(S(=O)(=O)NNC(=O)C2COc3ccccc3O2)cc1[N+](=O)[O-] (configuration not stated)

Result:
["16.1%", "-0.208%", "4.36%"]

// for each molecule in input: emit cell number change
1. Cc1nc2c(C(=O)N3CCOCC3)cnn2c(C)c1Cc1ccc(Cl)cc1
2. COc1ccc(N2CCCC2)c(NC(=O)c2ccc(Br)o2)c1
3. CC1CCN(C(=O)c2ccc3c(c2)NC(=O)/C(=C/c2ccccc2)S3)CC1

Result:
["-21.6%", "13.9%", "3.29%"]

* * *

# PROCEDURE_SUMMARY: qHTS Assay for Lipid Storage Modulators in Drosophila S3 Cells;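 as to cell number change: cells counted by Cell Tracker Red CMTPX staining in the red channel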
# TEST_PARAMETERS: BODIPY lipid droplet fluorescence, 18-24 h, cells fed with added oleic acid; measured here: cell count max response
In all, about 320,000 compounds went through this assay and about 2,100 (0.66%) were called active. Roughly 53% stayed inconclusive and do not appear here. Many of the other results were omitted from the sample, so actives are more common in it than they were.
READOUT_KIND: cell number change (%)
Answers are plain numbers, in %.

These recorded examples may help you get a feel for the data.
[[record]]
compound = "COc1ccccc1N1CCN(CC(C)N(C(=O)C2CCCCC2)c2ccccn2)CC1 (centres undefined)"
readout_kind = "cell number change"
quantity_unit = "%"
numeric_result = 9.42

[[record]]
compound = "Cc1ccc(NC(=O)CSc2ccccc2NC(=O)c2cccc(Cl)c2)cc1Cl"
readout_kind = "cell number change"
quantity_unit = "%"
numeric_result = -1.09


// for each compound in input: emit cell number change
1. CCN(CC)c1ccc(/C=N/Nc2ccccc2)c(O)c1
2. CCCCn1nc2cc(C(=O)N[C@H](C)C3CCCCC3)ccc2c1OCC

Result:
1. -10.7
2. -12

* * *

# PROCEDURE_SUMMARY: qHTS Assay for Lipid Storage Modulators in Drosophila S3 Cells
# TEST_PARAMETERS: BODIPY lipid droplet fluorescence, 18-24 h, cells fed with added oleic acid; series mostly up to 46.1 µM
Out of some 320,000 compounds screened, about 2,100 (0.66%) were called active. Roughly 53% stayed inconclusive and do not appear here. The call rests on the fitted dose curve; in most records, active means well fitted inhibition curve with a large enough effect in the signal ratio, with a control signal flat (not every such curve was filed as active); inconclusive means small, poorly fitted or top-dose-only effect, or effect the other way, or a change in a side signal; inactive means flat fitted curve, though single readings scatter; the % refers to the signal ratio. This excerpt belongs to a sample that is enriched for actives.
The reply should name one outcome from active, inactive

Consider the following illustrative entries.
[[record]]
compound = "NC(=O)C1(N2CCCCC2)CCN(C(=O)CSc2nc3ccccc3s2)CC1"
class = "inactive"

[[record]]
compound = "CCCN(CCC)Cc1c(C(=O)N/N=C/c2ccco2)nnn1-c1nonc1N"
class = "inactive"

[[record]]
compound = "COc1ccc(CCN(C)C(=O)c2cc(-c3ccccc3)nc3ccccc23)cc1OC"
class = "inactive"

[[record]]
compound = "NC(=O)C1CCN(C(=O)CSc2nc3ccccc3o2)CC1"
class = "inactive"

[[record]]
compound = "O=C(CN1C(=O)/C(=C/c2ccccc2F)SC1=S)NC1C=CS(=O)(=O)C1 (stereo unspecified)"
class = "active"


Consider the record given below.
Ask: How was CCN1C(=O)[C@@H]2[C@@H](c3ccc(-c4ccc5c(c4)OCO5)c(OC)c3)N3CCCC[C@@]3(C(=O)OC)[C@@H]2C1=O classified in this test?
Result: inactive

* * *

# PROCEDURE_SUMMARY: qHTS Assay for Lipid Storage Modulators in Drosophila S3 Cells
# TEST_PARAMETERS: BODIPY lipid droplet fluorescence, 18-24 h, cells fed with added oleic acid; series mostly up to 46.1 µM
# Description: NIH Molecular Libraries Probe Production Centers Network [MLPCN] NIH Chemical Genomics Center [NCGC] […] Triacsin C (Sigma-Aldrich T-4540), an inhibitor of long-chain fatty acyl CoA synthetase that blocks synthesis of triglycerides, was used as a positive control for lipid under-storage. […] Fluorescence was detected by excitation of the fluorophores with a 488-nm laser on an Acumen Explorer (TTP Lab Tech). […] Cells were detected using channel 3 (575-640 nm) with 5-um width and 100-um depth filters. […]
The campaign covered roughly 320,000 compounds. About 2,100 (0.66%) were called active. Another 53% or so got no clear call; they are omitted. The call rests on the fitted dose curve; in most records, active means well fitted inhibition curve with a large enough effect in the signal ratio, with a control signal flat (not every such curve was filed as active); inconclusive means small, poorly fitted or top-dose-only effect, or effect the other way, or a change in a side signal; inactive means flat fitted curve, though single readings scatter; the % refers to the signal ratio. This excerpt belongs to a sample that is enriched for actives.
The reply should name one outcome from active, inactive

Consider the following illustrative entries.
[[record]]
molecule = "COC(=O)C1=C(C)N(Cc2ccccc2)C(=NCc2ccccc2)N[C@H]1c1cccc(F)c1"
class = "inactive"

[[record]]
molecule = "Cc1ccc(COc2cccc(/C=N/NC(=O)c3nnn(-c4nonc4N)c3C)c2)cc1"
class = "active"

[[record]]
molecule = "CC1(C)CC2CC(C)(CN2C(=O)c2cc(-c3ccc(O)cc3)on2)C1 (configuration not stated)"
class = "active"

[[record]]
molecule = "O=C(Nc1cccc(-c2cccc(Cl)c2)c1)C1CCN(CC2CCOC2)CC1 (configuration not stated)"
class = "inactive"

[[record]]
molecule = "CN1/C(=C\\C=N\\NC(=O)c2ccc(O)cc2)C(C)(C)c2ccccc21"
class = "active"

[[record]]
molecule = "CCN(CC(=O)Nc1ccc(OC)cc1)C(=O)CCc1nc2ccccc2c(=O)[nH]1"
class = "inactive"

[[record]]
molecule = "Cc1ccc(OCCOCCn2ccnc2)c(Br)c1"
class = "inactive"

[[record]]
molecule = "COc1cccc(-c2cccc(NC(=O)C3CCN(CC4CCOC4)CC3)c2)c1 (configuration not stated)"
class = "active"


Ask: How was CCCN(CCC)Cc1c(C(=O)N/N=C/C(C)=C\c2ccco2)nnn1-c1nonc1N classified in this test?
Result: active

Ask: How was COC(=O)c1ccc(Cc2ccc(C(=O)OC)o2)o1 classified in this test?
Result: inactive

Ask: How was COc1ccc(C(=O)CSc2nnnn2Cc2ccccc2)cc1 classified in this test?
Result: inactive

Ask: How was COc1cccc(/C=N/NC(N)=S)c1OS(=O)(=O)c1ccccc1 classified in this test?
Result: inactive

Ask: How was COc1ccc(C2=NOC(C(=O)Nc3ccc4c(c3)OCO4)C2)cc1 (configuration not stated) classified in this test?
Result: inactive

Ask: How was CCn1c(=O)cc(OCC(=O)Nc2ccc(C)cn2)c2ccccc21 classified in this test?
Result: inactive

Ask: How was C=C1CCC[C@]2(C)C[C@H]3OC(=O)C(CN4CCOCC4)[C@H]3C[C@@H]12 (some centres not stated) classified in this test?
Result: active

Ask: How was CC(C)c1c(C(=O)N/N=C/c2ccccc2OCc2c(F)cccc2Cl)nnn1-c1nonc1N classified in this test?
Result: inactive

Ask: How was CCC(C)(C)NC(=O)CN(C(=O)c1csnn1)c1cccc2c1CCCC2 classified in this test?
Result: inactive

Data provenance is PubChem BioAssay AID2685.
